Data origin, for the record: patent US20220362386A1

Consider the following molecules and their measured Papp A→B at 60 min, 10 μM readings.
Test: In-vitro absorption, Caco-2 A-B permeability
Format: in vitro ADME, human
Conditions: human, Caco-2, pH 7.4, Caco-2 A-B; without verapamil; 1.0E−05M; read-out: Permeability 1st
Counter-ions that a name gives are not always drawn. Non-standard residues stand in square brackets, D forms with d. Residues, ends and D or L forms follow the SMILES beside them. Dopa = N[C@@H](Cc1ccc(O)c(O)c1)C(=O)O

{"molecule": "N[C@@H](Cc1ccc(O)c(O)c1)C(=O)O [LD (control), L-3,4-dihydroxyphenylalanine, reference compound]", "Papp A→B at 60 min, 10 μM, ×10⁻⁶ cm/s": 1.15}
{"molecule": "N[C@@H](Cc1ccc(O)c(O)c1)C(=O)N[C@@H](Cc1ccc(O)cc1)C(=O)O [LD-Tyr TFA salt, Levodopa Tyrosine TFA Salt] (H-[Dopa]-Tyr-OH)", "Papp A→B at 60 min, 10 μM, ×10⁻⁶ cm/s": 0.05}
{"molecule": "NC(=O)CC[C@H](NC(=O)[C@@H](N)Cc1ccc(O)c(O)c1)C(=O)O [LD-Gln TFA salt, Levodopa Glutamine TFA Salt] (H-[Dopa]-Gln-OH)", "Papp A→B at 60 min, 10 μM, ×10⁻⁶ cm/s": 1.83}
{"molecule": "N[C@@H](CSC[C@@H](NC(=O)[C@@H](N)Cc1ccc(O)c(O)c1)C(=O)O)C(=O)O (single isomer, unassigned; peak 1) [LD-LA1 TFA salt, Levodopa Lanthionine Peak 1 TFA Salt]", "Papp A→B at 60 min, 10 μM, ×10⁻⁶ cm/s": 0.2}
{"molecule": "N[C@@H](Cc1ccc(O)c(O)c1)C(=O)NCC(=O)O [LD-Gly TFA salt, Levodopa Glycine TFA Salt]", "Papp A→B at 60 min, 10 μM, ×10⁻⁶ cm/s": 0.03}
{"molecule": "N[C@@H](Cc1ccc(O)c(O)c1)C(=O)N[C@@H](Cc1c[nH]c2ccccc12)C(=O)O [LD-Trp TFA salt, Levodopa Tryptophan] (H-[Dopa]-Trp-OH)", "Papp A→B at 60 min, 10 μM, ×10⁻⁶ cm/s": 0.04}

* * *

Test: In-vitro metabolism of LDAA compounds using liver microsomes
Type: in vitro ADME, human
Conditions: incubation time 60 minutes; 1.0E−07M
Where a name gives a salt, the structure may show the parent alone. Non-standard residues stand in square brackets, D forms with d. Residues, ends and D or L forms follow the SMILES beside them. Dopa = N[C@@H](Cc1ccc(O)c(O)c1)C(=O)O
Could you please mark t for values of % Compound Remaining 2nd below 70% and f for values at or above it?

{"compound": "NCCCC[C@H](NC(=O)[C@@H](N)Cc1ccc(O)c(O)c1)C(=O)O [LD-Lys TFA salt, Levodopa Lysine TFA Salt] (H-[Dopa]-Lys-OH)", "label.class": "t"}
{"compound": "N[C@@H](Cc1ccc(O)c(O)c1)C(=O)O [LD (control), L-3,4-dihydroxyphenylalanine, reference compound]", "label.class": "f"}
{"compound": "N[C@@H](CSC[C@@H](NC(=O)[C@@H](N)Cc1ccc(O)c(O)c1)C(=O)O)C(=O)O (single isomer, unassigned; peak 1) [LD-LA1 TFA salt, Levodopa Lanthionine Peak 1 TFA Salt]", "label.class": "t"}
{"compound": "N[C@@H](Cc1ccc(O)c(O)c1)C(=O)N[C@@H](Cc1c[nH]c2ccccc12)C(=O)O [LD-Trp TFA salt, Levodopa Tryptophan] (H-[Dopa]-Trp-OH)", "label.class": "t"}
{"compound": "NC(=O)CC[C@H](NC(=O)[C@@H](N)Cc1ccc(O)c(O)c1)C(=O)O [LD-Gln TFA salt, Levodopa Glutamine TFA Salt] (H-[Dopa]-Gln-OH)", "label.class": "f"}
{"compound": "NC(=O)C[C@H](NC(=O)[C@@H](N)Cc1ccc(O)c(O)c1)C(=O)O [LD-Asn TFA salt, Levodopa Asparagine TFA Salt] (H-[Dopa]-Asn-OH)", "label.class": "t"}
{"compound": "N[C@@H](Cc1ccc(O)c(O)c1)C(=O)N[C@@H](Cc1ccc(O)cc1)C(=O)O [LD-Tyr TFA salt, Levodopa Tyrosine TFA Salt] (H-[Dopa]-Tyr-OH)", "label.class": "f"}
{"compound": "N[C@@H](Cc1ccc(O)c(O)c1)C(=O)NCC(=O)O [LD-Gly TFA salt, Levodopa Glycine TFA Salt]", "label.class": "t"}
{"compound": "N[C@@H](CSC[C@H](NC(=O)[C@@H](N)Cc1ccc(O)c(O)c1)C(=O)O)C(=O)O (single isomer, unassigned; peak 2) [LD-LA2 TFA salt, Levodopa Lanthionine Peak 2 TFA Salt]", "label.class": "t"}
{"compound": "N=C(N)NCCC[C@H](NC(=O)[C@@H](N)Cc1ccc(O)c(O)c1)C(=O)O [LD-Arg TFA salt, Levodopa Arginine TFA Salt]", "label.class": "t"}
